# measurement notes: In vitro cell viability assay
# Type: cell-based
# settings: human, SH-SY5Y cells
measured endpoint: viability at 48 h, 40 μmol/L
# answer = value followed by unit

Observe how each entry below is paired with its result.
INSERT INTO assay_data (molecule, reported) VALUES
  ('O=C1NC(=O)/C(=C/c2ccc(OCCNc3nc4c(cnn4C4CCCC4)c(=O)[nH]3)c(F)c2)S1 [Compound 11a]', '55%'),
  ('COc1cc(CC2SC(=O)NC2=O)cc(F)c1OCCNc1nc2c(cnn2C2CCCC2)c(=O)[nH]1 (stereo not shown) [Compound 14c]', '93%'),
  ('O=C1NC(=O)C(Cc2ccc(OCCNc3nc4c(cnn4C4CCCC4)c(=O)[nH]3)c(F)c2)S1 (stereo not shown) [Compound 14a]', '82%');

State the recorded viability at 48 h, 40 μmol/L for this entry: COc1cc(/C=C2\SC(=O)NC2=O)cc(F)c1OCCNc1nc2c(cnn2C2CCCC2)c(=O)[nH]1 [Compound 11c] 84%
